Values were extracted from ChEMBL document CHEMBL1681690.

- experiment-notes: Oral bioavailability in monkey at 2 mg/kg
- Type: ADME, organism-based, Macaca mulatta
- condition-description: rhesus monkey, in vivo
assay-readout: bioavailability

Give reported bioavailability value for `Cn1c(=O)c(F)c(Nc2ccc(I)cc2F)c2c(=O)n(C[C@@H](O)CO)cnc21`
> 38%

* * *

- experiment-notes: Mean residence time in rat at 4.2 mg/kg, po
- Type: ADME, organism-based
- Design: dose 4.2 mg/kg, route oral
- condition-description: in vivo
assay-readout: MRT (h)
Give the value in h but do not write h after it.

Give reported MRT value for `Cn1c(=O)c(F)c(Nc2ccc(I)cc2F)c2c(=O)n(C[C@@H](O)CO)cnc21`
11.5

* * *

- experiment-notes: Mean residence time in monkey at 0.5 mg/kg, iv
- Format: ADME, organism-based, Macaca mulatta
- Set-up: dose 0.5 mg/kg, route intravenous
- condition-description: rhesus monkey, in vivo
assay-readout: MRT (h)
Give the value in h but do not write h after it.

Give reported MRT value for Cn1c(=O)c(F)c(Nc2ccc(I)cc2F)c2c(=O)n(C[C@@H](O)CO)cnc21 [TAK-733]
5.8

* * *

- experiment-notes: Half life in human liver microsomes
- Format: ADME, Microsome
assay-readout: half-life

Cc1c(Nc2ccc(I)cc2F)c2c(=O)n(C[C@H](O)CO)cnc2n(C)c1=O | > 3.33 h
Cn1c(=O)cc(Nc2ccc(I)cc2F)c2c(=O)n(C[C@H](O)CO)cnc21 | > 3.33 h
Cn1c(=O)cc(Nc2ccc(I)cc2F)c2c(=O)n(CCCO)cnc21 | > 3.33 h

// switching to the query compound
Give reported half-life value for `Cc1c(Nc2ccc(I)cc2F)c2c(=O)n(CCO)cnc2n(C)c1=O`
> 3.33 h

* * *

- experiment-notes: Half life in rat liver microsomes
- Type: ADME, Microsome
Recorded measurements of half-life, one per entry
Give the value in min but do not write min after it.

Study these solved cases before continuing.
Cn1c(=O)c(F)c(Nc2ccc(I)cc2F)c2c(=O)n(CCO)cnc21 | 29
CN(C)CCn1cnc2c(c(Nc3ccc(I)cc3F)cc(=O)n2C)c1=O | 8
Cn1c(=O)c(F)c(Nc2ccc(I)cc2F)c2c(=O)n(C[C@H](O)CO)cnc21 | 91

Give reported half-life value for `Cc1c(Nc2ccc(I)cc2F)c2c(=O)n(C[C@@H](O)CO)cnc2n(C)c1=O`
118

Give reported half-life value for `Cn1c(=O)cc(Nc2ccc(I)cc2F)c2c(=O)n(C[C@@H](O)CCO)cnc21`
40

Give reported half-life value for `Cn1c(=O)c(F)c(Nc2ccc(I)cc2F)c2c(=O)n(C[C@@H](O)CO)cnc21`
135

Give reported half-life value for `Cn1c(=O)cc(Nc2ccc(I)cc2F)c2c(=O)n(C[C@@H](O)CO)cnc21`
25

Give reported half-life value for `C#Cc1ccc(Nc2c(F)c(=O)n(C)c3ncn(C[C@@H](O)CO)c(=O)c23)c(F)c1`
33

Give reported half-life value for `Cn1cnc2c(c(Nc3ccc(I)cc3F)cc(=O)n2C)c1=O`
13
